MEASUREMENT_KIND: IC50 (µM)
Could you give me the number in µM? Just the number is fine.

Problem: Form entry - test system: UniProtKB P07943; read-out: IC50; molecule: O=C(O)Cn1c2c(c3ccccc31)CN(C(=O)C1CC1)CC2
Result: 0.0575

Problem: Report IC50 for CCOC(=O)N1CCc2c(c3cc(OC)ccc3n2CC(=O)O)C1 tested on UniProtKB P07943.
Result: 0.0126

Problem: What is its IC50 for UniProtKB P07943? Entry: CC(=O)c1c(C)n(CC(=O)O)c2ccccc12
Result: 0.169

---

- TARGET_OF_ASSAY: Aldo-keto reductase family 1 member B10 (Homo sapiens, UniProt O60218)
- Sequence (O60218 whole entry): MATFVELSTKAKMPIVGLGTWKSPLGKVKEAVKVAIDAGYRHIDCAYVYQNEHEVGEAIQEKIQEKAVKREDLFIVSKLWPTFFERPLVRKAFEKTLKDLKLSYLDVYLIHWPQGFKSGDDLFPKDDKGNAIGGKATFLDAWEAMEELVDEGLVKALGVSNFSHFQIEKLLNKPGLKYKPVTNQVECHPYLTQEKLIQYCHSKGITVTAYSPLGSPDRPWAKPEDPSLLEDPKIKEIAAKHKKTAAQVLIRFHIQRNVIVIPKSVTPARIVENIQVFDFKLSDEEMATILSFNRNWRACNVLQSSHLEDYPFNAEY
- ASSAY_PROTOCOL: Inhibition of recombinant human AKR1B10
MEASUREMENT_KIND: pIC50
Lab note — pIC50 values are minus log10 of concentrations in M.

Problem: Which value of pIC50 has been reported for CCOC(=O)N1CCc2c(c3cc(OC)ccc3n2CC(=O)O)C1 in the records?
Result: 5.03

---

Aldo-keto reductase family 1 member A1 (Rattus norvegicus, UniProt P51635) measurements of pIC50, listed per entry.
Sequence (P51635 whole entry, looked up): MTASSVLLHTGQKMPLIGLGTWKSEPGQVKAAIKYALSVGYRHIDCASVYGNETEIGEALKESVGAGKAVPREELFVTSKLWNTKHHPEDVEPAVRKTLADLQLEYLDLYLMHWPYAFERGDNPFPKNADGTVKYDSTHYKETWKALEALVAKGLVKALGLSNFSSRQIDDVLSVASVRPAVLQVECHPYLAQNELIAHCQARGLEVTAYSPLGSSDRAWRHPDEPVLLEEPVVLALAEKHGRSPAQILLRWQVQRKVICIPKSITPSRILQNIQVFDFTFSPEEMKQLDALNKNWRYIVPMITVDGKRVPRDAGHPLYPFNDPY
Please report pIC50 as the negative decimal logarithm of the molar concentration, giving only the number.

Problem: Give the reported pIC50 for CC(=O)c1c(C)n(CC(=O)O)c2ccccc12 (system: Aldo-keto reductase family 1 member A1 (Rattus norvegicus, UniProt P51635)).
Result: 4.95

Problem: Param readout = pIC50; param system = Aldo-keto reductase family 1 member A1 (Rattus norvegicus, UniProt P51635); param query = CCOC(=O)N1CCc2c(c3cc(OC)ccc3n2CC(=O)O)C1 ; response: value
Result: 5.00

Problem: Param readout= pIC50; system= Aldo-keto reductase family 1 member A1 (Rattus norvegicus, UniProt P51635); entry= Cc1c(C=O)c2ccccc2n1CC(=O)O ; returns value.
Result: 4.93
